test: Pharmacokinetics of intraperitoneal or intravenous injection in CD1 mice; type: in vivo; settings: male, CD1, mouse, plasma, iv, 1 mg/kg, IV 1.0 mg/kg, CD1 mice plasma, 1 h; read-out: Conc. (ng/mL) Mouse 3
Each record here notes measured concentration at 1 h.
Measured Attribute: concentration at 1 h (ng/mL)

- Smiles Text: "Cc1ncsc1-c1ccc(CNC(=O)[C@@H]2C[C@@H](O)CN2C(=O)[C@@H](NC(=O)CCOCCCOc2ccc(Nc3ncc(C(F)(F)F)c(NCc4cccc(N(C)S(C)(=O)=O)c4)n3)cc2)C(C)(C)C)cc1"
  Uom: "ng/mL"
  Test Value: 57.5
- Smiles Text: "Cc1ncsc1-c1ccc(CNC(=O)[C@@H]2C[C@@H](O)CN2C(=O)[C@@H](NC(=O)COCCCOc2ccc(Nc3ncc(C(F)(F)F)c(NCc4cccc(N(C)S(C)(=O)=O)c4)n3)cc2)C(C)(C)C)cc1"
  Uom: "ng/mL"
  Test Value: 9.52
- Smiles Text: "Cc1ncsc1-c1ccc(CNC(=O)[C@@H]2C[C@@H](O)CN2C(=O)[C@@H](NC(=O)CCOCCOc2ccc(Nc3ncc(C(F)(F)F)c(NCc4cccc(N(C)S(C)(=O)=O)c4)n3)cc2)C(C)(C)C)cc1"
  Uom: "ng/mL"
  Test Value: 18.4
- Smiles Text: "Cc1ncsc1-c1ccc(CNC(=O)[C@@H]2C[C@@H](O)CN2C(=O)[C@@H](NC(=O)COCCOc2ccc(Nc3ncc(C(F)(F)F)c(NCc4cccc(N(C)S(C)(=O)=O)c4)n3)cc2)C(C)(C)C)cc1"
  Uom: "ng/mL"
  Test Value: 8.79

* * *

Each record here notes measured concentration at 2 h.
test: Pharmacokinetics of intraperitoneal or intravenous injection in CD1 mice; format: in vivo; details: male, CD1, mouse, plasma, iv, 1 mg/kg, IV 1.0 mg/kg, CD1 mice plasma, 2 h; read-out: Conc. (ng/mL) Mouse 1

- Smiles Text: "Cc1ncsc1-c1ccc(CNC(=O)[C@@H]2C[C@@H](O)CN2C(=O)[C@@H](NC(=O)COCCOc2ccc(Nc3ncc(C(F)(F)F)c(NCc4cccc(N(C)S(C)(=O)=O)c4)n3)cc2)C(C)(C)C)cc1"
  concentration at 2 h [ng/mL]: 3.27
- Smiles Text: "Cc1ncsc1-c1ccc(CNC(=O)[C@@H]2C[C@@H](O)CN2C(=O)[C@@H](NC(=O)CCOCCCOc2ccc(Nc3ncc(C(F)(F)F)c(NCc4cccc(N(C)S(C)(=O)=O)c4)n3)cc2)C(C)(C)C)cc1"
  concentration at 2 h [ng/mL]: 36.1
- Smiles Text: "Cc1ncsc1-c1ccc(CNC(=O)[C@@H]2C[C@@H](O)CN2C(=O)[C@@H](NC(=O)COCCCOc2ccc(Nc3ncc(C(F)(F)F)c(NCc4cccc(N(C)S(C)(=O)=O)c4)n3)cc2)C(C)(C)C)cc1"
  concentration at 2 h [ng/mL]: 5.32
- Smiles Text: "Cc1ncsc1-c1ccc(CNC(=O)[C@@H]2C[C@@H](O)CN2C(=O)[C@@H](NC(=O)CCOCCOc2ccc(Nc3ncc(C(F)(F)F)c(NCc4cccc(N(C)S(C)(=O)=O)c4)n3)cc2)C(C)(C)C)cc1"
  concentration at 2 h [ng/mL]: 6.9

* * *

experiment: Pharmacokinetics of intraperitoneal or intravenous injection in CD1 mice; format: in vivo; settings: male, CD1, mouse, plasma, iv, 1 mg/kg, IV 1.0 mg/kg, CD1 mice plasma, 2 h; read-out: Conc. (ng/mL) Mouse 2
Each record here notes measured concentration at 2 h.

- Smiles Text: "Cc1ncsc1-c1ccc(CNC(=O)[C@@H]2C[C@@H](O)CN2C(=O)[C@@H](NC(=O)COCCCOc2ccc(Nc3ncc(C(F)(F)F)c(NCc4cccc(N(C)S(C)(=O)=O)c4)n3)cc2)C(C)(C)C)cc1"
  Uom: "ng/mL"
  concentration at 2 h: 7.86
- Smiles Text: "Cc1ncsc1-c1ccc(CNC(=O)[C@@H]2C[C@@H](O)CN2C(=O)[C@@H](NC(=O)CCOCCCOc2ccc(Nc3ncc(C(F)(F)F)c(NCc4cccc(N(C)S(C)(=O)=O)c4)n3)cc2)C(C)(C)C)cc1"
  Uom: "ng/mL"
  concentration at 2 h: 27.7
- Smiles Text: "Cc1ncsc1-c1ccc(CNC(=O)[C@@H]2C[C@@H](O)CN2C(=O)[C@@H](NC(=O)CCOCCOc2ccc(Nc3ncc(C(F)(F)F)c(NCc4cccc(N(C)S(C)(=O)=O)c4)n3)cc2)C(C)(C)C)cc1"
  Uom: "ng/mL"
  concentration at 2 h: 9.2
- Smiles Text: "Cc1ncsc1-c1ccc(CNC(=O)[C@@H]2C[C@@H](O)CN2C(=O)[C@@H](NC(=O)COCCOc2ccc(Nc3ncc(C(F)(F)F)c(NCc4cccc(N(C)S(C)(=O)=O)c4)n3)cc2)C(C)(C)C)cc1"
  Uom: "ng/mL"
  concentration at 2 h: 5.86
